- Tested on: Mycobacterium tuberculosis
- assay comment: Inhibition of ATP synthase in multi-drug resistant Mycobacterium tuberculosis clinical isolate 14862 assessed as reduction in bacterial growth incubated for 7 days by microplate alamar blue assay
- study conditions: time 7.0 day
quantity measured: MIC=>90 (mg/L)
Your answer should be a plain number; it is taken to be in mg/L.

[ask] Give MIC=>90 for O=c1c(NCc2ccccn2)c(Nc2ccc3c(c2)OCO3)c1=O
[reply] 0.499

Continuing:
[ask] Give MIC=>90 for O=c1c(NCc2ccccn2)c(-c2ccc(N3CCOCC3)cc2)c1=O
[reply] 0.114

[ask] Give MIC=>90 for O=c1c(NCc2ccccn2)c(Nc2ccc3c(c2)CCC3)c1=O
[reply] 0.94

[ask] Give MIC=>90 for O=C1CCCc2cc(Nc3c(NCc4ccccn4)c(=O)c3=O)ccc21
[reply] 0.895

[ask] Give MIC=>90 for CO[C@H]1/C=C/O[C@@]2(C)Oc3c(C)c(O)c4c(O)c(c(/C=N/N5CCN(C)CC5)c(O)c4c3C2=O)NC(=O)/C(C)=C\C=C\[C@H](C)[C@H](O)[C@@H](C)[C@@H](O)[C@@H](C)[C@H](OC(C)=O)[C@@H]1C
[reply] 9.32

[ask] Give MIC=>90 for Cc1cc(Nc2c(NCc3ccccn3)c(=O)c2=O)ccc1N1CCSCC1
[reply] 0.207

[ask] Give MIC=>90 for O=c1c(NCc2ccccn2)c(Nc2ccc3scnc3c2)c1=O
[reply] 3.37

---

- System: Mycobacterium tuberculosis
- assay comment: Inhibition of ATP synthase in multi-drug resistant Mycobacterium tuberculosis clinical isolate 13946 assessed as reduction in bacterial growth incubated for 7 days by microplate alamar blue assay
- study conditions: time 7.0 day
quantity measured: MIC=>90
Report the figure along with its unit, number first.

Worked examples, 3 molecules total:
[ask] State, for Mycobacterium tuberculosis, measured MIC=>90 of the molecule listed here: O=C1CCCc2cc(Nc3c(NCc4ccccn4)c(=O)c3=O)ccc21
[reply] 0.488 µg/mL

[ask] State, for Mycobacterium tuberculosis, measured MIC=>90 of the molecule listed here: O=c1c(NCc2ccccn2)c(Nc2ccc3scnc3c2)c1=O
[reply] 3.53 µg/mL

[ask] State, for Mycobacterium tuberculosis, measured MIC=>90 of the molecule listed here: Cc1cc(Nc2c(NCc3ccccn3)c(=O)c2=O)ccc1N1CCSCC1
[reply] 0.257 µg/mL

We next turn to a different molecule, shown below.
[ask] State, for Mycobacterium tuberculosis, measured MIC=>90 of the molecule listed here: O=c1c(NCc2ccccn2)c(Nc2ccc3c(c2)OCO3)c1=O
[reply] 0.47 µg/mL
